TARGET_UNDER_TEST: UniProt P34972
Sequence (P34972 whole entry): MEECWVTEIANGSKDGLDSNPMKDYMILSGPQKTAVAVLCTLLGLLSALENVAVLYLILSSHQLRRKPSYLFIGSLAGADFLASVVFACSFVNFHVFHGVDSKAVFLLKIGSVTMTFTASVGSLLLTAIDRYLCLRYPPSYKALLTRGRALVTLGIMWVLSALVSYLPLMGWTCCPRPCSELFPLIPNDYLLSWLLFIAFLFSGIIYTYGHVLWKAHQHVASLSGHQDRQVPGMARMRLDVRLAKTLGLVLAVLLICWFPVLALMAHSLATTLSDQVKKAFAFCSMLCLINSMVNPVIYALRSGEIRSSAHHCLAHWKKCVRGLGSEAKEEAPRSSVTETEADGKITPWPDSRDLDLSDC
MEASUREMENT_NOTES: β-arrestin2 recruitment assay (Pathhunter)
Format: cell-based
Set-up: host or cells: CHO cells (Pathhunter)
CONDITION: Figure 2; normalized to 1 μM CP55940

[
  {
    "COMPOUND": "Cn1c(C(C)(C)C)cc(=NC(=O)c2cc(C(F)(F)F)ccc2OCC(C)(C)O)n1CC1CCC1 [RNB-61]",
    "READOUT_UNIT": "nM",
    "EC50": 13.3
  }
]

###

System: P-gp
MEASUREMENT_NOTES: Brain penetration study with/without P-gp inhibitor tariquidar
Format: in vivo, male C57/BL6 mice
CONDITION: male, C57/BL6, mouse, plasma, iv, with tariquidar 5 mg kg^–1 i.v. bolus, 30 min prior to RNB-61; RNB-61 1 mg kg^–1 i.v. + tariquidar 5 mg kg^–1 i.v.; read-out: plasma CL (converted)

[
  {
    "COMPOUND": "Cn1c(C(C)(C)C)cc(=NC(=O)c2cc(C(F)(F)F)ccc2OCC(C)(C)O)n1CC1CCC1 [RNB-61]",
    "TARGET_UNDER_TEST": "P-gp",
    "READOUT_UNIT": "mL/min/kg",
    "clearance": 4.68
  }
]
